Each recorded value in this set is attributed to patent US20220251215A1.

- Experimental Target: T1, monomeric HLA-A2:NY-ESO-1(156-165) (V at position 165) peptide complex, 2906
- T1 construct: also called soluble HLA-A2:NY-ESO-1 peptide complex
- Test Summary: SPR, 25 C, antibody captured, monomeric complex injected;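 further: antibody held on sensor chip via immobilized anti-human or anti-mouse Fc antibody, rate constants derived by fitting sensorgrams to a 1:1 binding model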
Could you please report measured pKd for the items listed next?
pKd is defined as minus the log10 of a concentration measured in mol/L.

Data request: Requested field: pKd. Item: mAb28037P2 (antibody, human IgG4 S228P, kappa, V domains shown) VH: QVQLQESGPGLVKPSETLSLTCTVSGDSISVYYWTWIRQPPGKGLEWIGYVHYTGYTNYNPSLKSRVTMSVDTAKKQISLKVRSVTAADTAVYYCARTIPAAAHYYHGTDVWGPGTTVTVSS VL: DIQMTQSPSSLSASVGDRVTITCQANQDIRKYLNWYQQKSGKAPTLLIYEASNLETGAPSTFSGSGSGTEFTFTISSLRPEDIATYYCQQYESLPLTFGGGTKVEIKR
Data returned: 9.16

Data request: Returns the measured pKd for the input binder. Input: mAb28128P (antibody, human IgG4 S228P, kappa, V domains shown) VH: EVQLVESGGGVVQPGGSLRLSCAASGFIFDDYAMHWVRQVPGKGLEWISLSSGGGGGTYYADPVKGRFTISRDNSKNSLHLQMNSLRAEDTASYYCAKDMVFGVVTPDFFFAMDVWGQGTTVTVSS VL: DIQMTQSPSSLSASVGDRVTITCRASQSISTYLNWYQQKPGKAPKLLIYGASSLQRGVPSRFSGSGSGTDFTLTISSLQPEDFATYYCQQTYSTPPITFGQGTRLEIKR
Data returned: 9.80

Data request: Report pKd for mAb28105P (antibody, human IgG4 S228P, kappa, V domains shown) VH: EVQLVESGGGVVQPGGSLRLSCEASGFIFDDYAMHWVRQAPGKGLEWVSLISGDGDIIYYADSVKGRFTISRDNSKNSLYLQMNSLIIEDTALYYCAKDWVFGVVMTHYWYFGLDVWGQGTTVTVSS VL: DIQMTQSPSSLSASEGDRVTITCRASQSISTYLNWYQQKPGKAPKLLIYGASSLQSGVPSRFSGSGSGTDFTLTISSLQPEDFATYYCQQSYSTPPITFGQGTKVEIKR please.
Data returned: 9.41

Data request: Any idea what pKd was measured for mAb24958N (antibody, human IgG4 S228P, kappa, V domains shown) VH: QVQLQESGPGLVKPSQTLSLTCTVSGGSIISDGYYWSWIRQHPGKGLEWIGYVDYSGNTYYNPSLKSRIIMSVDTSKNQFSLKLTSVTAADTAVYFCVREGPLRDAFEIWGQGTMVTVSS VL: DIQMTQSPSSLSASVGDRVTITCRTSQSISRYLNWYQQKPGKAPKLLIFAASSLQSGVPSRFSGSGSGADFTLTISSLQPEDFATYYCQQSYSTPPITFGQGTRLEIKR ?
Data returned: 8.56

Data request: Field request: pKd | item: mAb24959N (antibody, human IgG4 S228P, kappa, V domains shown) VH: QLQLLESGPGLVKPSETLSLICTVSGGSIRGSSYYWGWIRQPPEKGLEWIGSIYSSGSTYYNPSLKSRVTISADTSKNQFSLKLSSVTAADTAVYYCARHGGITAVQLEFDPWGQGTLVTVSS VL: DIQMTQSPSSLSASVGDRVTITCQASQDISNYLKWYQQKPGKAPKILIHDASNLEIGVPSRFSGSGAGTDFIFTISSLQPEDIGTYYCQQYDNLPITFGQGTRLEIKR
Data returned: 8.91

Data request: Data request, read-out pKd, for mAb28042P (antibody, human IgG4 S228P, kappa, V domains shown) VH: QLQLQESDPGLVKPSETLSLTCTVSGDSIRNSNYYWGWIRQPPGKGLEWIGSIYFSGRTYFNPSLKSRVTIPVDMSKNQFSLMLNSVTATDTAVYYCARHGGITAAGGFFDYWGQGTLVTVSS VL: DIQMTQSPSSLSASVGDRVTITCQASQDISNYLNWYQQKPGKAPNVLIYDASNLETGVPSRFSGSGSGTDFTFTISSLQPEDFATYYCQQNDNLPLTFGGGTKVEIKR
Data returned: 9.26
